target-under-test: hemagglutinin (HA) on live influenza A virus A/Solomon Islands/3/06 H1N1 (Influenza A virus A/Solomon …)
method-summary: cell-based or functional assay
Provide the recorded % Neutralization for the entries that follow.
Give bare numbers, in %.

Use the examples below as a reference point.
TCN-545 (5082_I15) (antibody, V domains shown) VH: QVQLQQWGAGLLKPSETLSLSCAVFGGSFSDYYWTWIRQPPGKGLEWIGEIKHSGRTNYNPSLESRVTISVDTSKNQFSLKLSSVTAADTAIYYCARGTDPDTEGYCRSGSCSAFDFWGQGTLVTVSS VL: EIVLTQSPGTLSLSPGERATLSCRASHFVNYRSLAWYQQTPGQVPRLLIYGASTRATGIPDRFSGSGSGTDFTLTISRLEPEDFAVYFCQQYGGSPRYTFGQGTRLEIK | 88
TCN-555 (5246_L16) (antibody, V domains shown) VH: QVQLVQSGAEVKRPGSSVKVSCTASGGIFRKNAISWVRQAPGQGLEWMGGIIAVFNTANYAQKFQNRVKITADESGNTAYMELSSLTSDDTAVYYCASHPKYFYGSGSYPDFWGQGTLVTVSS VL: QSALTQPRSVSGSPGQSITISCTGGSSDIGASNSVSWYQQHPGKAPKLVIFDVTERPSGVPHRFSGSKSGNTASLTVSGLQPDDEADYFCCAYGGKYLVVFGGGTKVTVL | 49
TCN-546 (5089_L08) (antibody, V domains shown) VH: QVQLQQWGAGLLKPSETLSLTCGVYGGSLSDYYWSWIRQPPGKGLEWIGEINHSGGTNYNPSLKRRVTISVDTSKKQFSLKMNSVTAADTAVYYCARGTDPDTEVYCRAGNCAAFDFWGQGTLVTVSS VL: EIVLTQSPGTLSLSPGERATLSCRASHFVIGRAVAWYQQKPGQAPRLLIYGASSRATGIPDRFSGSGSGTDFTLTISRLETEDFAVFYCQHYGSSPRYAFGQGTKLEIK | 98

Go through the list and state % Neutralization for each entry.
1. TCN-542 (5079_A16) (antibody, V domains shown) VH: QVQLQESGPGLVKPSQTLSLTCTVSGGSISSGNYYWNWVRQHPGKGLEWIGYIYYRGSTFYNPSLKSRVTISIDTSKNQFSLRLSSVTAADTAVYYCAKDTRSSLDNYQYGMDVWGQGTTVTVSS VL: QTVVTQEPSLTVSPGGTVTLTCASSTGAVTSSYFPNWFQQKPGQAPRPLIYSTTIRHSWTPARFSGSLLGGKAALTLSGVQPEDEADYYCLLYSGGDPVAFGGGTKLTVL
2. TCN-552 (5249_I23) (antibody, V domains shown) VH: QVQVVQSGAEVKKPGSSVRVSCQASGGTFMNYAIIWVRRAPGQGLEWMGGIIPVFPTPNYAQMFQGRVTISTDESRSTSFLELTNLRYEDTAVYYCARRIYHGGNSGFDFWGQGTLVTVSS VL: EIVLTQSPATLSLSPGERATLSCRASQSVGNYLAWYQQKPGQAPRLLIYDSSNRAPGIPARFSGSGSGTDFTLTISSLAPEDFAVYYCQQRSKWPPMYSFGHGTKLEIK
3. TCN-551 (5243_D01) (antibody, V domains shown) VH: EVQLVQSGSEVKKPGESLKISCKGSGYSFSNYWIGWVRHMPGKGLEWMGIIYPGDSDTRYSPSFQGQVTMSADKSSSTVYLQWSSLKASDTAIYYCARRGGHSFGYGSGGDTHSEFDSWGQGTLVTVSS VL: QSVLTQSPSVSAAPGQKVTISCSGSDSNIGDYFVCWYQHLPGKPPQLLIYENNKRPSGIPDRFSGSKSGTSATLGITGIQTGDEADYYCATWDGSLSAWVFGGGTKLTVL
4. TCN-540 (5060_F05) (antibody, V domains shown) VH: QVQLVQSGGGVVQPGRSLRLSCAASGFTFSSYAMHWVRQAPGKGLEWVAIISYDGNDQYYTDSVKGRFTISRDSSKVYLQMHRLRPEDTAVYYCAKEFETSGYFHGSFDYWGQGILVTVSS VL: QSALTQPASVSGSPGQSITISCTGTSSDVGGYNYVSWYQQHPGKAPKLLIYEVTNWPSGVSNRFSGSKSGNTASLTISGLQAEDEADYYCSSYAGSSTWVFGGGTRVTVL

## Output
[99, 0, 99, 3]
